- system: Beta-lactamase TEM (Escherichia coli)
- Sequence (P62593 whole entry): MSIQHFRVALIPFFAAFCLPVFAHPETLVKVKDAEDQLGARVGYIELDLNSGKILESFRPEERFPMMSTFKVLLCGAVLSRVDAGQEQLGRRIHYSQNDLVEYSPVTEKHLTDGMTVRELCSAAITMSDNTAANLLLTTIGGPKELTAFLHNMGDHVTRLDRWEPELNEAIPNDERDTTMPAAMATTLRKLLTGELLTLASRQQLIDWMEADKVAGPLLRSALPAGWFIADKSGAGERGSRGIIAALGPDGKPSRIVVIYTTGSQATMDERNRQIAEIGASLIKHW
- test: ChEBML_47839
- Protocol: The compound was tested for its inhibitory activity towards Class A TEM-1 beta-lactamase from Escherichia coli at 0.3 umol
reported_property: IC50

**Query** Give IC50 for the following molecule: C/C=C1/C(=O)N2C(C(=O)O)=C3CCCCC3[C@H]12 (stereo partly specified)
**Result** 120 µM
